Each recorded value in this set is attributed to patent US20220259318A1.

Reported CAR-J2 EC50 [ng/mL] (PGLALA-CAR-J activation, L363 target cells) values follow for various binders
molecular target: human GPRC5D (human, UniProt Q9NZD1 1-345); assay: cell-based or functional assay
Sequence (Q9NZD1 whole entry): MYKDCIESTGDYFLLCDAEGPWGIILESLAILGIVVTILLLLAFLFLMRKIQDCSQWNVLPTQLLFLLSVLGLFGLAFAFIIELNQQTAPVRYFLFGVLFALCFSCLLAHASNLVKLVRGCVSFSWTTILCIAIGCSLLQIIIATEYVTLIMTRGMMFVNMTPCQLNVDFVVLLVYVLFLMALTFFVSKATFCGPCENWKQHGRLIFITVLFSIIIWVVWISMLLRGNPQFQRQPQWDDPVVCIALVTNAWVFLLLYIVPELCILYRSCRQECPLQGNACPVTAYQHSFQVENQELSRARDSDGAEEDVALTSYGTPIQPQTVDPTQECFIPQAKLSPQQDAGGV
Supply the numeric figure in ng/mL, leaving out any unit text.

P1AE5763 (antibody, V domains shown, Humanized 5F11 IgG; PGLALA Fc implied by the CAR-J assay; also called 5F11_VH2d + 5F11_VL2b) VH: EVQLVESGGGLVQPGGSLRLSCAASGFSFSNYGMAWVRQAPGKGLEWVASISTGGGNTYYADSVKGRFTISRDNAKNTLYLQMNSLRAEDTAVYYCTRHDRGGLYWGQGTMVTVSS VL: DIVMTQSPDSLAVSLGERATINCKSSKSLLHSNGITYVYWYQQKPGQPPKLLIYRMSNLASGVPDRFSGSGSGTDFTLTISSLQAEDVAVYHCGQLLENPYTFGQGTKLEIK = 5.47
P1AE5753 (antibody, V domains shown, Humanized 5F11 IgG; PGLALA Fc implied by the CAR-J assay; also called 5F11_VH1d + 5F11_VL2b) VH: EVQLVESGGGVVQPGRSLRLSCAASGFSFSNYGMAWVRQAPGKGLEWVASISTGGGNTYYADSVKGRFTISRDNAKNTLYLQMNSLRAEDTAVYYCTRHDRGGLYWGQGTMVTVSS VL: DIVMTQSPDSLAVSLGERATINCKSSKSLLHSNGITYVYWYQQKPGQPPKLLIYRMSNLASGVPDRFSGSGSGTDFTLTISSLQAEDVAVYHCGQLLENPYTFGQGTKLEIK = 30

Next item in the queue.
Requested read-out: CAR-J2 EC50 [ng/mL] (PGLALA-CAR-J activation, L363 target cells). Entry: P1AE5758 (antibody, V domains shown, Humanized 5F11 IgG; PGLALA Fc implied by the CAR-J assay; also called 5F11_VH2b + 5F11_VL2b) VH: EVQLVESGGGLVQPGGSLRLSCAASGFSFSNYGMAWVRQAPGKGLEWVASISTGGGNTYYRDSVKGRFTISRDNAKNTLYLQMNSLRAEDTAVYYCTRHDRGGLYWGQGTMVTVSS VL: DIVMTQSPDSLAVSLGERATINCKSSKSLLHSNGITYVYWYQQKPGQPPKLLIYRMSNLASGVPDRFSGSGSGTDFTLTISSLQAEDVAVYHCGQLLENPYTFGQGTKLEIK 190
